system: UACC-257 melanoma; assay: NCI-60 one-dose screen, 48 h (100 = growth as untreated, 0 = no growth, -100 = all killed); details: 10 µM unless noted
Compounds without any hit were thinned out: in the full panel of roughly 83,000, 20% have a hit.
Binary call on growth: Met from 80% upward, Not met beneath that.

Example results:
O=C(CN1C(=O)/C(=C/c2ccco2)SC1=S)NCCc1c[nH]c2ccc(F)cc12	Met
COc1cccc2c(N=NC(=O)c3ccc(S(N)(=O)=O)cc3)c(O)[nH]c12	Met
O=C(CN1C(=O)NC2NC(=O)NC21)N/N=C/c1ccc(Cl)cc1Cl (stereo not given)	Met
COc1ccc(-c2cn(-c3ccc(Cl)cc3)c(SCC(=O)c3ccc([N+](=O)[O-])cc3)n2)cc1	Met
O=C1NC(=Nc2ccc(O)cc2)S/C1=C\c1cccs1	Not met

Prompt line: Quick check: does COc1cc(-c2nc(NC(C)=O)sc2-c2ccnc(NCCNS(=O)(=O)c3ccccc3)n2)ccc1Cl have growth greater than or equal to 80%?
Response line: Not met

Prompt line: Threshold query (growth >= 80%) on COc1ccc(C2CC(c3ccc(Nc4nc(Nc5ccc(F)cc5)nc(Nc5ccc(F)cc5)n4)cc3)=NN2C(C)=O)cc1 (stereo not given)
Response line: Met

Prompt line: Is growth at least 80%? Consider N#C/C(=C\c1ccc(-c2ccc(Cl)cc2)o1)c1ccc(Cl)cc1
Response line: Met

Prompt line: Hi team, for S=c1[nH]c2cc(Cl)ccc2o1 , is the recorded growth at or above 80%?
Response line: Met

Prompt line: Check if growth >= 80% (inclusive). Item: CCN1CCN(CC(=O)Nc2nc3ccc(NCc4ccc(Br)cc4)cc3s2)CC1
Response line: Not met

Prompt line: Assess whether reported growth for COc1ccc(OC)c(-c2cn3nc(-c4c[nH]c5ccc(Br)cc45)sc3n2)c1 sits at 80% or higher.
Response line: Met

Prompt line: // inclusive: growth at least 80%? input: CCOC(=O)c1c(-c2ccc(Cl)cc2)c(C#N)c2c(C#N)c(N)nn2c1N
Response line: Not met

Prompt line: Entry Cc1c(N2CN3C[C@H](C)N4CN(c5c(C)n(C)n(-c6ccccc6)c5=O)CN5C[C@@H](C)N(C2)C3C54)c(=O)n(-c2ccccc2)n1C (stereo not given in full) : is its growth no less than 80%?
Response line: Met

Prompt line: Given N#Cc1c(Nc2ccc(F)cc2)n[nH]c1-c1cccs1 , state whether its growth is at least 80%.
Response line: Met

Prompt line: I'd appreciate it if you could say whether COc1ccc2nc(SCC(=O)Nc3ccccc3C)[nH]c2c1 has growth at least equal to 80%.
Response line: Met

Prompt line: Does growth meet or surpass 80% for Cc1ccc2[nH]c(=O)c3c(c2c1)OC(N)=C(C#N)C31C(=O)c2cccc3cccc1c23 (stereo not given) ?
Response line: Met

Prompt line: Is it the case that C(/C=C/c1ccccc1)=Nc1ccc(CCc2ccc(N=C/C=C/c3ccccc3)cc2)cc1 has growth reaching or exceeding 80%?
Response line: Met

Prompt line: Please tell me: is the compound Cc1cc(N2CCN(C)CC2)nc(NCc2cc(Nc3ccnc4cc(Cl)ccc34)ccc2F)n1 at or over 80% in terms of growth?
Response line: Not met

Prompt line: Answer whether growth of COc1cccc(/C=C/C(=O)c2cc3c(N)c(C(=O)Nc4ccccc4C)sc3nc2C)c1 is greater than or equal to 80%.
Response line: Met

Prompt line: Assess whether reported growth for COc1cc2c(/C=C3\C(=O)Nc4ccccc43)c(C(=O)O)[nH]c2cc1C sits at 80% or higher.
Response line: Met

====

tested on: HCT-15 colon; assay: NCI-60 one-dose screen, 48 h (100 = growth as untreated, 0 = no growth, -100 = all killed); conditions: 10 µM unless noted
Compounds without any hit were thinned out: in the full panel of roughly 83,000, 20% have a hit.
Give growth for every item shown.
Numbers only, in %.

A selection of reference data follows.
Nc1n[nH]c2ccc([C@@H]3Nc4cc5[nH]ncc5cc4[C@H]4C5CCC(C5)[C@@H]34)cc12 (stereo not given in full)	13.7
Cc1cc2nc(-c3c(-c4ccc(F)cc4)nc4sccn34)[nH]c2cc1C	93
COc1cc(Nc2c3ccc(Cl)cc3nc3ccc(OC)cc23)c2ncccc2c1	23.8
O=C(Nc1cccnc1Nc1ccc(Cl)cc1)c1cn(Cc2ccc(F)cc2)nn1	95.4

Next up:
Prompt line: Complete the entry with growth for O=C1NC(=O)c2c1c1c3ccccc3[nH]c1c1oc3ccc(F)cc3c21
Response line: 55.1

====

test system: CCRF-CEM leukemia; assay: NCI-60 one-dose screen, 48 h (100 = growth as untreated, 0 = no growth, -100 = all killed); conditions: 10 µM unless noted
Compounds without any hit were thinned out: in the full panel of roughly 83,000, 20% have a hit.
Simple rule here: growth less than 50% is label 1, otherwise label 0.

Illustrative cases are given below, each with its answer.
CCN1C(=O)N(CC)C2C1NN=c1s/c(=C3\C(=O)N(CCc4ccccc4)c4ccccc43)c(=O)n12 (stereo not given)	label 1
Cn1cc(C(=O)c2nc(-c3c[nH]c4ccc(Br)cc34)no2)c2cc(Br)ccc21	label 1

Prompt line: growth strictly < 50% for this molecule? O=C1CC2C=CCN2C=C1NC(=O)C1CCCCC1 (stereo not given)
Response line: label 0

Prompt line: # TODO verify growth < 50% strictly for this molecule: NS(=O)(=O)c1ccc(N/C=C/C(=O)c2cc3ccccc3oc2=O)cc1
Response line: label 0

Prompt line: Determine if NC(=O)OCCn1cc(-c2nc(-c3c[nH]c4ncccc34)cs2)c2ccccc21 shows growth strictly lower than 50%.
Response line: label 1

Prompt line: Item C=CCN=C(N)SCCCCCCSC(N)=NCC=C : growth beneath 50%, strictly?
Response line: label 0

Prompt line: Given the entry COc1cccc(C(=O)OCC(O)C(=O)NC23CC4CC(CC(C4)C2)C3)c1 (stereo not given) , would its reported growth be below 50%?
Response line: label 0

Prompt line: Criterion: growth strictly below 50%. Is it met by COc1cc(-c2nc3ccc(C)cc3[nH]2)ccc1OCC(=O)N=Nc1c(O)[nH]c2ccc(Cl)cc12 ?
Response line: label 1

Prompt line: API: query returns whether the molecule falls strictly under 50% in growth. Query: CN1CCN(Cc2ccc(NC(=O)c3cncc(C#Cc4cncc5[nH]ncc45)c3)cc2C(F)(F)F)CC1
Response line: label 1

====

test system: BT-549 breast; assay: NCI-60 one-dose screen, 48 h (100 = growth as untreated, 0 = no growth, -100 = all killed); settings: 10 µM unless noted
This is part of a sample that, as a whole, favours compounds with a hit. Of some 83,000 tested, about 20% had one in any assay.
Please mark true (1) if the recorded growth is equal to or greater than 80%, and false (0) if it falls below.

Previously resolved entries follow.
O=C(CN1C(=O)NC2NC(=O)NC21)N/N=C/c1ccc(Cl)cc1Cl (stereo not given)	true (1)
CCCCNC1=C(OCC)C(=O)c2ccccc2C1=O	false (0)
CCOC(=O)C1=C(c2ccccc2)N=c2s/c(=C/c3ccc(Br)cc3)c(=O)n2C1c1ccc(O)cc1 (stereo not given)	true (1)
CNC(=O)c1c(NC(=O)c2ccc(C(C)(C)C)cc2)sc2c(CN(C)C)c(O)ccc12	false (0)
COc1ccc2c(c1)c(-c1nonc1-c1c[nH]c3ccc(Br)cc13)cn2C	false (0)
C=C(c1ccc(C(=O)O)cn1)c1cc2c(cc1C)C(C)(C)CCC2(C)C	true (1)

Prompt line: Does the molecule CC(=O)c1c(Nc2ccc(F)c(F)c2F)[nH]c2c(F)cc(F)cc2c1=O have recorded growth that is 80% or more?
Response line: false (0)

Prompt line: Is the recorded value of growth equal to or greater than 80% for this molecule? CCCNc1nc2ccccc2c2c(=O)c3cccc(Cl)c3sc12
Response line: true (1)

Prompt line: For this molecule, is measured growth 80% or higher? O=C(CN1CCN(c2cc3c(cc2F)c(=O)c(C(=O)O)cn3C2CC2)CC1)N/N=C/c1ccncc1
Response line: true (1)

====

system: UACC-257 melanoma; experiment: NCI-60 one-dose screen, 48 h (100 = growth as untreated, 0 = no growth, -100 = all killed); conditions: 10 µM unless noted
Compounds without any hit were thinned out: in the full panel of roughly 83,000, 20% have a hit. Activity calls are given as the source filed them. How the source made its calls: active means growth percent below 10; inactive means the rest.
reported_endpoint: growth

Sample answers from the record:
COc1cc(C(=O)c2c(-c3ccccc3)oc3c(OC)cccc23)cc(OC)c1O	71.4% (inactive)
CC(C)c1ccc(NC(=O)Nc2ccc(NC(=O)c3ccccc3N)cc2)cc1	58.6% (inactive)
CCCCCCCCn1ccc2cc(NC(=O)Cn3cc(CN4CCOCC4)nn3)ccc21	104% (inactive)
N#Cc1c(-c2ccccc2)nc2c(c(-c3ccccc3)nn2-c2ccccc2)c1-c1ccc(N2CCOCC2)cc1	101% (inactive)
CCOC(=O)c1c(C)c2c(n1C)CSc1cc(S(=O)(=O)c3ccccc3)c(=O)[nH]c1-2	41.9% [100 µM] (inactive)

I have 4 compounds here; please give me growth for each one.
1. O=C(O)CCCc1cnc2c3sccc3nc(SCc3c(Cl)cccc3Cl)n12
2. O=C(CCC(=O)c1nc2ncccc2[nH]1)NN1C(=O)CSC1c1ccc(Cl)cc1 (stereo not given)
3. CCN(CC)c1ccc(N2C(=O)/C(=C/c3cccs3)SC2=S)cc1
4. CCCCCCCC/C=C\CCCCCCCCOc1ccc(CC(=O)NCC[N+](C)(C)C)cc1

Response line:
53% (inactive)
105% (inactive)
80.6% (inactive)
79.7% (inactive)

Prompt line: Consider the compound COc1ccc(Nc2ncc(C(N)=O)c(NCCCNC(=O)C3CCC3)n2)cc1 and give its recorded growth.
Response line: 112% (inactive)
